Exercise: for every item that follows, state its recorded Tht rel to blank (42.1851851851852).
# Format: physicochemical
# EXPERIMENTAL_PARAMETERS: ThT fluorescence relative to blank, blank = 42.1851851851852
Answers are plain numbers.

[[record]]
substance = "RGECKFKFQF [CN16]"
observed_result = 2.392

[[record]]
substance = "KIKIQII [TG1 / (KM4)]"
observed_result = 1.392

[[record]]
substance = "CKIKQIINMWQ [MG5a / CK17]"
observed_result = 48.46


Hi, could you look up Tht rel to blank (42.1851851851852) for each item in my list?
1. QCKFKQFF [CK12]
2. HHHHKIKIQINMYYYY [TM16]
3. KVKVKVQV [JG14 / TG14]
4. HHHHKAKAKAKAYYYY [TM10]
5. KAKAKAQA [TG15]

Given back:
2.349
12.17
5.801
1.39
1.151

Data credit: paper PMC10447463
